- Experiment summary: Viability qHTS for spleen associated tyrosine kinase inhibitor (SYKi) drug resistant MV4-11 cells (AID 1963824); note: nearly all actives have a fitted effect of over 35% in size
- Assay context: SYKi-resistant MV4-11 viability, CellTiter-Glo, 72 h; series mostly up to 45 µM
Inconclusive results are not listed. Calls of active or inactive are those of the source. Calls come from the whole dose curve; as a rule, active = well fitted cell-killing curve with a large enough effect; inconclusive = small, poorly fitted or top-dose-only effect, or effect the other way; inactive = no such curve, though single readings can be large or run the other way.
The reply should name one outcome from t for active, f for inactive

Below, 3 molecules whose answers are already recorded.
Molecule | Category label
C[C@@H]1CC[C@@]2(OC1)O[C@H]1C[C@H]3[C@@H]4CC=C5C[C@@H](O)CC[C@]5(C)[C@H]4CC[C@]3(C)[C@H]1[C@@H]2C | f
Cc1cc(Nc2cc(N3CCN(C)CC3)nc(Sc3ccc(NC(=O)C4CC4)cc3)n2)n[nH]1 | t
CC1=C(C(=O)O)N2C(=O)[C@@H](NC(=O)[C@H](N)c3ccc(O)cc3)[C@H]2SC1 | f

// query Answer briefly: the call reported for NC(=O)c1cccc2c(NC(CN3CCC3)c3ccc(Cl)c(C(F)(F)F)c3)ncnc12 (stereo not drawn) in this assay.
// result t

// query Answer briefly: the call reported for CC[C@@]1(O)C(=O)OCc2c1cc1n(c2=O)Cc2c-1nc1ccccc1c2/C=N/OC(C)(C)C in this assay.
// result t

// query Answer briefly: the call reported for O=C(Nc1cccc(Cl)c1)Nc1ncc(CCNc2ncnc3ccsc23)s1 in this assay.
// result t

// query Answer briefly: the call reported for COc1c2ccoc2cc2oc(CO[C@@H]3O[C@H](CO)[C@@H](O)[C@H](O)[C@H]3O)cc(=O)c12 in this assay.
// result f

// query Answer briefly: the call reported for C[C@@H]1C(=O)O[C@H]2[C@H]1CC[C@@]1(C)C(=O)C=C[C@@](C)(O)[C@H]21 in this assay.
// result f

###

- Experiment summary: Cellular viability qHTS for adrenocortical cancer (ACC) cell line NCI-H295R (AID 1963990); note: nearly all actives have a fitted effect of over 60% in size
- Assay context: CellTiter-Glo ATP luminescence, 48 h; series mostly up to 46.1 µM
Records with an inconclusive call do not appear. The source made the active and inactive calls. Calls follow the shape of the dose curve; as a rule, active = well fitted cell-killing curve with a large enough effect; inconclusive = small, poorly fitted or top-dose-only effect; inactive = flat fitted curve, though single readings scatter.
The reply should name one outcome from 1 = active, -1 = inactive

Below, 5 compounds whose answers are already recorded.
Compound | Category label
COc1ccc2[nH]cc(CCNC(C)=O)c2c1 | -1
CCCc1c(OCCCCc2nn[nH]n2)ccc(C(C)=O)c1O | -1
O=C1C(c2[nH]c3ccccc3c2O)=Nc2ccccc21 | -1
Cc1ncc([N+](=O)[O-])n1CCO | -1
C=CC(=O)Nc1cccc(Nc2nc(Nc3ccc(N4CCN(C(C)=O)CC4)cc3OC)ncc2C(F)(F)F)c1 | 1

// query Answer briefly: the call reported for CCOC(=O)c1ccc(OC(=O)CCCCCN=C(N)N)cc1 in this assay.
// result -1

// query Answer briefly: the call reported for NC(=O)c1ncn([C@@H]2O[C@H](CO)[C@@H](O)[C@H]2O)n1 in this assay.
// result -1

// query Answer briefly: the call reported for CC(C)c1cc2c(cc1S(=O)(=O)O)[C@@]1(C)CCC[C@@](C)(C(=O)O)[C@@H]1CC2 in this assay.
// result -1

// query Answer briefly: the call reported for CCCCCCCOc1ccc(CCC(N)(CO)CO)cc1C(F)(F)F in this assay.
// result 1

// query Answer briefly: the call reported for C[C@]12CC[C@H](O)CC1=CCC1C2CC[C@]2(C)C(n3cnc4ccccc43)=CCC12 (stereo partly drawn) in this assay.
// result -1

// query Answer briefly: the call reported for CC(/C=C/C(=O)NO)=C\[C@@H](C)C(=O)c1ccc(N(C)C)cc1 in this assay.
// result 1

// query Answer briefly: the call reported for CS(=O)(=O)Nc1cc2occ(NC=O)c(=O)c2cc1Oc1ccccc1 in this assay.
// result -1

Source listed as PubChem BioAssay (NCATS).
